assay: In vivo PK study; parameters: species or system Sprague-Dawley (SD) rats; conditions: female, Sprague-Dawley, rat, plasma, iv, 2 mg/kg
OBSERVATION TYPE: Tmax (min)
API: value field is a number in min; no unit string.

Request: I'd like to know its Tmax. The molecule in question is Cc1cc(Nc2ccc(C(=O)N/N=C/c3scnc3C)cc2)c2cccc(O)c2n1
Result: 4.8

====

The reader will find reported IC50 values listed item by item below.
system: SMMC-7721; test: MTT assay, SMMC-7721 cells; format: cell-based, human; conditions: Homo sapiens, SMMC-7721, 48 h, read-out: IC50 SMMC-7721
The answer is to be given in µM; state only the numeric part.

Example entries and their recorded answers appear below.
compound=COc1ccc(F)c(/C=N/NC(=O)c2ccc(Nc3cc(C)nc4c(O)cccc34)cc2)c1 observation_type=IC50 endpoint_unit=µM endpoint_value=28.2
compound=C#Cc1ccc(/C=N/NC(=O)c2ccc(Nc3cc(C)nc4c(O)cccc34)cc2)cc1 observation_type=IC50 endpoint_unit=µM endpoint_value=33.9
compound=Cc1cc(Nc2ccc(C(=O)N/N=C/c3ccc(F)cc3Br)cc2)c2cccc(O)c2n1 observation_type=IC50 endpoint_unit=µM endpoint_value=16.9
compound=Cc1cc(Nc2ccc(C(=O)N/N=C/c3cccc(C(F)(F)F)c3)cc2)c2cccc(O)c2n1 observation_type=IC50 endpoint_unit=µM endpoint_value=20.6

In the following, a different compound is considered.
Request: So what does the record say about IC50 for CC1=C(O)C(=O)C=C2C1=CC=C1[C@@]2(C)CC[C@@]2(C)[C@@H]3C[C@](C)(C(=O)O)CC[C@]3(C)CC[C@]12C [Celastrol, reference compound] ?
Result: 16

====

# Lookup of reported IC50 keyed by entry
system: HCC cell lines (HepG2, HuH7, and SMMC-7721); assay: MTT assay, results stated over the three HCC cell lines; format: cell-based; details: Homo sapiens, 48 h, read-out: IC50 against HCC cells (span over cell lines)

molecule="Cc1cc(Nc2ccc(C(=O)N/N=C/c3cccc(Br)n3)cc2)c2cccc(O)c2n1 [7R]" endpoint_value="30 to 45.8 µM"

Request: Recorded IC50 of Cc1cc(Nc2ccc(C(=O)N/N=C/c3ccc(Br)c(F)c3)cc2)c2cccc(O)c2n1 [7M] , please.
Result: 15.8 to 27.6 µM

Request: # get_value(readout='IC50', item= Cc1cc(Nc2ccc(C(=O)N/N=C/c3ccc(F)c(Br)c3)cc2)c2cccc(O)c2n1 [7N] )
Result: 15.8 to 27.6 µM

Request: Using the record for Cc1cc(Nc2ccc(C(=O)N/N=C/c3scnc3C)cc2)c2cccc(O)c2n1 [TMHA37] , report its IC50.
Result: 2.33 to 7.68 µM

Request: So what's the measured IC50 for this one? Cc1cc(Nc2ccc(C(=O)N/N=C/c3sccc3Br)cc2)c2cccc(O)c2n1 [7B]
Result: < 30 µM

====

tested on: HuH7; experiment: MTT assay, HuH7 cells; format: cell-based, human; conditions: read-out: IC50 HuH7; MTT, 48 h, mean ± SD of three experiments
OBSERVATION TYPE: pIC50
Conceptually, pIC50 converts a concentration in mol/L into minus its log10.

Request: Returns the measured pIC50 for the input molecule. Input: N.N.[Cl][Pt][Cl] [CDDP, Cisplatinum, reference compound]
Result: 5.43

====

system: HCC cell lines (HepG2, HuH7, and SMMC-7721); test: MTT assay, results stated over the three HCC cell lines; type: cell-based; conditions: Homo sapiens, 48 h, read-out: IC50 against HCC cells (span over cell lines)
Measured IC50 of individual entries

Consider the following illustrative entries.
compound="Cc1cc(Nc2ccc(C(=O)N/N=C/c3cc(Br)cs3)cc2)c2cccc(O)c2n1 [7C]" endpoint_value="< 30 µM"
compound="Cc1cc(Nc2ccc(C(=O)N/N=C/c3ccc4ccccc4c3)cc2)c2cccc(O)c2n1 [7S]" endpoint_value="15 to 23.9 µM"

Request: Which value of IC50 has been reported for Cc1cc(Nc2ccc(C(=O)N/N=C/c3ccsc3)cc2)c2cccc(O)c2n1 [7A] in the records?
Result: 30.8 to 52.8 µM

Request: IC50 for COc1ccc(/C=N/NC(=O)c2ccc(Nc3cc(C)nc4c(O)cccc34)cc2)c2ccccc12 [7T] ?
Result: 15 to 23.9 µM

Request: // lookup IC50 for Cc1cc(Nc2ccc(C(=O)N/N=C/c3cc(C(F)(F)F)ccc3F)cc2)c2cccc(O)c2n1 [7P]
Result: 7.78 to 19.3 µM
